assay: Validation screen for small molecules that induce DNA re-replication in MCF 10A normal breast cells (AID 463097); conditions: MCF 10A cells, DNA re-replication phenotype imaging; series mostly up to 46.1 µM; further: nearly all actives have a fitted effect of over 60% in size
Inconclusive results are not listed. Active and inactive are the calls of the source. The call rests on the fitted dose curve; in most records, active means well fitted activation curve with a large enough effect; inconclusive means small, poorly fitted or top-dose-only effect; inactive means flat fitted curve, though single readings scatter.

| Molecule | outcome |
| --- | --- |
| C[C@@H](N)Cc1cnc[nH]1 | inactive |
| CCCN1CCC[C@H](c2cccc(O)c2)C1 | inactive |
| O=C1CCCN1CC#CCN1CCCC1 | inactive |
| NC1CCc2cc(O)c(O)cc2C1 (stereo unspecified) | inactive |
| NCCc1c[nH]c2ccccc12 | inactive |
| Oc1ccc2c3c1O[C@H]1c4[nH]c5c(c4C[C@@]4(O)[C@@H](C2)N(CC2CC2)CC[C@]314)C[C@@]1(O)[C@H]2Cc3ccc(O)c4c3[C@@]1(CCN2CC1CC1)[C@H]5O4 | inactive |

All figures here come from PubChem BioAssay (NCATS).
